Test system: SK-MEL-5
Experiment: NCI tumour cell line growth inhibition, 48 h
The source made the active and inactive calls. Cut-off read from the data, not from the text of the source: active = GI50 up to about 1.1 µM and inactive = higher. Where a SMILES comes first, the peptide text is derived from it. The star is where a group is joined. Boc = CC(C)(C)OC(=O)*
Classes to choose from: active, inactive

Check out these entries, answers already filled in.
INSERT INTO assay_data (compound, assigned_class) VALUES
  ('[O-]c1c2c(nn1-c1ccc(F)cc1)c1ccccc1c[n+]2Cc1ccccc1', 'inactive'),
  ('CCCC1(CC(=O)O)OCCc2c1[nH]c1ccccc21 (centres undefined)', 'inactive'),
  ('CC(NC(=O)C1CCCN1C(=O)CNC(=O)OC(C)(C)C)C(=O)O (stereo not drawn) (Boc-Gly-Pro-Ala-OH; configuration not given here)', 'inactive'),
  ('COC1(C)CC2N(C(=O)c3ccccc3)N=C(c3ccccc3)CC2(C)O1 (centres undefined)', 'inactive'),
  ('CCCCNC(=NC#N)NCCCC', 'inactive');

Q. What was the test verdict on CC(=O)N/N=C1\CC(C)(C)C2CCC1C2 (centres undefined) ?
A. inactive

Q. Please state the recorded outcome for this compound: "CC[C@@H](C)[C@H]([C@H](CC(=O)N1CCC[C@@H]1[C@@H](OC)[C@H](C)C(=O)N[C@H](Cc1ccccc1)c1nccs1)OC)N(C)C(=O)[C@H](NC(=O)[C@@H](C(C)C)N(C)C)C(C)C"
A. active

Q. Hey, what did the test say about O=[N+]([O-])c1ccc(C2CC(c3ccc(NCc4nc5ccccc5[nH]4)cc3)=NO2)cc1 (centres undefined) ?
A. inactive

Q. Fill in: this test's call for "CN(CC(=O)O)Cc1oc(CO)cc(=O)c1O" is ___
A. inactive
